test system: KRAS-mutant PDC complex spheroid viability; assay: Anticancer human tumor 186277-243-T-J2-PDC patient-derived colon adenocarcinoma cell line growth inhibition [KRAS2]; conditions: second compound 3.16 µM; first compound 0.316 µM; active = viability on the fitted dose curve at most 10% of control; inactive = the rest;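 note: viability read after seven days of compound exposure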
Labels: active, inactive

molecule	discrete.label
CC(C)NCC(C(=O)N1CCN(c2ncnc3c2C(C)CC3O)CC1)c1ccc(Cl)cc1 (stereo not given) + C=CC(=O)N1CCN(c2nc(=O)n(-c3c(C)ccnc3C(C)C)c3nc(-c4c(O)cccc4F)c(F)cc23)C(C)C1	inactive
Cn1nccc1Nc1nccc(-c2cc3c(s2)C(C)(C)N(CCN2CCOCC2)C3=O)n1 + CNCc1ccccc1-c1csc(C(C)Nc2nc(C)nc3cc(OC)c(OC)cc23)c1	active
Cn1nccc1Nc1nccc(-c2cc3c(s2)C(C)(C)N(CCN2CCOCC2)C3=O)n1 + C=CC(=O)N1CCN(c2nc(=O)n(-c3c(C)ccnc3C(C)C)c3nc(-c4c(O)cccc4F)c(F)cc23)C(C)C1	inactive
CCNC(=O)CC1N=C(c2ccc(Cl)cc2)c2cc(OC)ccc2-n2c(C)nnc21 (stereo not given) + CNCc1ccccc1-c1csc(C(C)Nc2nc(C)nc3cc(OC)c(OC)cc23)c1	inactive
CC1OCC2(CCN(c3cnc(Sc4ccnc(N)c4Cl)c(N)n3)CC2)C1N (stereo not given) + CNCc1ccccc1-c1csc(C(C)Nc2nc(C)nc3cc(OC)c(OC)cc23)c1	inactive
CC1COCCN1c1cc(-c2ccnn2C)c2ccnc(-c3ccn[nH]3)c2n1 (stereo not given) + C=CC(=O)N1CCN(c2nc(OCC3CCCN3C)nc3c2CCN(c2cccc4cccc(C)c24)C3)CC1CC#N	active
COc1cc2nccc(Oc3ccc(NC(=O)C4(C(=O)Nc5ccc(F)cc5)CC4)cc3)c2cc1OC + C=CC(=O)N1CCN(c2nc(=O)n(-c3c(C)ccnc3C(C)C)c3nc(-c4c(O)cccc4F)c(F)cc23)C(C)C1	inactive
CC1COCCN1c1cc(-c2ccnn2C)c2ccnc(-c3ccn[nH]3)c2n1 (stereo not given) + CC1OCC2(CCN(c3cnc(Sc4ccnc(N)c4Cl)c(N)n3)CC2)C1N	active
CC1(C)CCC(CN2CCN(c3ccc(C(=O)NS(=O)(=O)c4ccc(NCC5CCOCC5)c([N+](=O)[O-])c4)c(Oc4cnc5[nH]ccc5c4)c3)CC2)=C(c2ccc(Cl)cc2)C1 + C=CC(=O)N1CCN(c2nc(=O)n(-c3c(C)ccnc3C(C)C)c3nc(-c4c(O)cccc4F)c(F)cc23)C(C)C1	inactive
CCN1CCN(Cc2ccc(Nc3ncc(F)c(-c4cc(F)c5nc(C)n(C(C)C)c5c4)n3)nc2)CC1 + CNCc1ccccc1-c1csc(C(C)Nc2nc(C)nc3cc(OC)c(OC)cc23)c1	active
O=C(c1cc(Cc2n[nH]c(=O)c3ccccc23)ccc1F)N1CCN(C(=O)C2CC2)CC1 + CC1OCC2(CCN(c3cnc(Sc4ccnc(N)c4Cl)c(N)n3)CC2)C1N	inactive
COc1cc2nccc(Oc3ccc(NC(=O)C4(C(=O)Nc5ccc(F)cc5)CC4)cc3)c2cc1OC + CNCc1ccccc1-c1csc(C(C)Nc2nc(C)nc3cc(OC)c(OC)cc23)c1	inactive
COc1cc2nccc(Oc3ccc(NC(=O)C4(C(=O)Nc5ccc(F)cc5)CC4)cc3)c2cc1OC + CC1OCC2(CCN(c3cnc(Sc4ccnc(N)c4Cl)c(N)n3)CC2)C1N	inactive
O=C(c1cc(Cc2n[nH]c(=O)c3ccccc23)ccc1F)N1CCN(C(=O)C2CC2)CC1 + COc1cc2nc(C)nc(NC(C)c3cc(N)cc(C(F)(F)F)c3)c2cc1OC1CCOC1	inactive
COc1cc2nccc(Oc3ccc(NC(=O)C4(C(=O)Nc5ccc(F)cc5)CC4)cc3)c2cc1OC + C=CC(=O)N1CCN(c2nc(OCC3CCCN3C)nc3c2CCN(c2cccc4cccc(C)c24)C3)CC1CC#N	active
O=C(c1cc(Cc2n[nH]c(=O)c3ccccc23)ccc1F)N1CCN(C(=O)C2CC2)CC1 + C=CC(=O)N1CCN(c2nc(=O)n(-c3c(C)ccnc3C(C)C)c3nc(-c4c(O)cccc4F)c(F)cc23)C(C)C1	inactive
CC(C)NCC(C(=O)N1CCN(c2ncnc3c2C(C)CC3O)CC1)c1ccc(Cl)cc1 (stereo not given) + CNCc1ccccc1-c1csc(C(C)Nc2nc(C)nc3cc(OC)c(OC)cc23)c1	active
COc1cc(Nc2ncc3c(n2)-c2ccc(Cl)cc2C(c2c(F)cccc2OC)=NC3)ccc1C(=O)O + C=CC(=O)N1CCN(c2nc(=O)n(-c3c(C)ccnc3C(C)C)c3nc(-c4c(O)cccc4F)c(F)cc23)C(C)C1	inactive
O=C(c1cc(Cc2n[nH]c(=O)c3ccccc23)ccc1F)N1CCN(C(=O)C2CC2)CC1 + C=CC(=O)N1CCN(c2nc(OCC3CCCN3C)nc3c2CCN(c2cccc4cccc(C)c24)C3)CC1CC#N	active
CC1(C)CCC(CN2CCN(c3ccc(C(=O)NS(=O)(=O)c4ccc(NCC5CCOCC5)c([N+](=O)[O-])c4)c(Oc4cnc5[nH]ccc5c4)c3)CC2)=C(c2ccc(Cl)cc2)C1 + CNCc1ccccc1-c1csc(C(C)Nc2nc(C)nc3cc(OC)c(OC)cc23)c1	inactive
